Listed next: entries and their corresponding MIC.
Test system: Salmonella enterica serovar Typhimurium SL1344
SETTINGS: MHB
Counter-ions that a name gives are not always drawn.
OBSERVABLE: MIC (µM)

>  <COMPOUND>
C=C1c2cccc(O)c2C(=O)C2=C(O)[C@]3(O)C(=O)C(C(N)=O)=C(O)[C@@H](N(C)C)[C@@H]3[C@@H](O)[C@H]12 [METHACYCLINE HYDROCHLORIDE]

>  <OBSERVABLE>
MIC

>  <UNITS SYMBOL>
µM

>  <COMPARISON OPERATOR>
=

>  <RECORDED VALUE>
6.25

$$$$
>  <COMPOUND>
CN(C)c1ccc(O)c2c1C[C@H]1C[C@H]3[C@H](N(C)C)C(O)=C(C(N)=O)C(=O)[C@@]3(O)C(O)=C1C2=O [MINOCYCLINE HYDROCHLORIDE]

>  <OBSERVABLE>
MIC

>  <UNITS SYMBOL>
µM

>  <COMPARISON OPERATOR>
=

>  <RECORDED VALUE>
12.5

$$$$
>  <COMPOUND>
N[C@@H](Cc1cc(I)c(Oc2ccc(O)c(I)c2)c(I)c1)C(=O)O

>  <OBSERVABLE>
MIC

>  <UNITS SYMBOL>
µM

>  <COMPARISON OPERATOR>
>

>  <RECORDED VALUE>
50

$$$$
>  <COMPOUND>
CO/N=C(\C(=O)N[C@@H]1C(=O)N2C(C(=O)O)=C(CSc3nc(=O)c(O)nn3C)CS[C@H]12)c1csc(N)n1 [CEFTRIAXONE SODIUM TRIHYDRATE]

>  <OBSERVABLE>
MIC

>  <UNITS SYMBOL>
µM

>  <COMPARISON OPERATOR>
≤

>  <RECORDED VALUE>
0.78

$$$$
>  <COMPOUND>
CC(=O)[O][Hg][c]1ccccc1 [PHENYLMERCURIC ACETATE]

>  <OBSERVABLE>
MIC

>  <UNITS SYMBOL>
µM

>  <COMPARISON OPERATOR>
≤

>  <RECORDED VALUE>
0.78

$$$$
>  <COMPOUND>
CO[C@H]1/C=C/O[C@@]2(C)Oc3c(C)c(O)c4c(O)c(c(/C=N/N5CCN(C)CC5)c(O)c4c3C2=O)NC(=O)/C(C)=C\C=C\[C@H](C)[C@H](O)[C@@H](C)[C@@H](O)[C@@H](C)[C@H](OC(C)=O)[C@@H]1C

>  <OBSERVABLE>
MIC

>  <UNITS SYMBOL>
µM

>  <COMPARISON OPERATOR>
=

>  <RECORDED VALUE>
50

$$$$
>  <COMPOUND>
C[C@H]1COc2c(C3(N)CC3)c(F)cc3c(=O)c(C(=O)O)cn1c23 [PAZUFLOXACIN MESYLATE]

>  <OBSERVABLE>
MIC

>  <UNITS SYMBOL>
µM

>  <COMPARISON OPERATOR>
≤

>  <RECORDED VALUE>
0.78

$$$$
>  <COMPOUND>
CC1CCc2cc(F)cc3c(=O)c(C(=O)O)cn1c23 (centres undefined)

>  <OBSERVABLE>
MIC

>  <UNITS SYMBOL>
µM

>  <COMPARISON OPERATOR>
=

>  <RECORDED VALUE>
6.25

$$$$
>  <COMPOUND>
CCOc1ccc(Cc2nccc3cc(OCC)c(OCC)cc23)cc1OCC [ETHAVERINE HYDROCHLORIDE]

>  <OBSERVABLE>
MIC

>  <UNITS SYMBOL>
µM

>  <COMPARISON OPERATOR>
>

>  <RECORDED VALUE>
50

$$$$
>  <COMPOUND>
CNCCCC12CCC(c3ccccc31)c1ccccc12 [MAPROTILINE HYDROCHLORIDE]

>  <OBSERVABLE>
MIC

>  <UNITS SYMBOL>
µM

>  <COMPARISON OPERATOR>
>

>  <RECORDED VALUE>
50

$$$$
>  <COMPOUND>
COc1ccc(Cc2cnc(N)nc2N)cc1OC

>  <OBSERVABLE>
MIC

>  <UNITS SYMBOL>
µM

>  <COMPARISON OPERATOR>
=

>  <RECORDED VALUE>
1.56

$$$$
>  <COMPOUND>
O.O.O=C([O-])CN(CCN(CC(=O)[O-])CC(=O)O)CC(=O)O.[Na+].[Na+] [EDETATE DISODIUM]

>  <OBSERVABLE>
MIC

>  <UNITS SYMBOL>
µM

>  <COMPARISON OPERATOR>
>

>  <RECORDED VALUE>
50

$$$$
>  <COMPOUND>
CC(=O)[C@H]1CC[C@H]2[C@@H]3C[C@H](C)C4=CC(=O)CC[C@]4(C)[C@H]3[C@@H](O)C[C@]12C

>  <OBSERVABLE>
MIC

>  <UNITS SYMBOL>
µM

>  <COMPARISON OPERATOR>
>

>  <RECORDED VALUE>
50

$$$$
>  <COMPOUND>
C[C@@H](O)[C@H]1C(=O)N2C(C(=O)O)=C(S[C@@H]3CN[C@H](C(=O)N(C)C)C3)[C@H](C)[C@H]12

>  <OBSERVABLE>
MIC

>  <UNITS SYMBOL>
µM

>  <COMPARISON OPERATOR>
=

>  <RECORDED VALUE>
12.5

$$$$

Taken from the supplement of paper PMC6331611.
